B1: ZNF449 (parent)
chain: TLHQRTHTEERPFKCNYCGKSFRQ

- Variants of: B1
- test.protocol: protein stability index of a GFP-peptide fusion (GPS, HEK-293T) (PSI 1-6); higher = more stable;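 note: lentivirally expressed fusions sorted by FACS into six bins by GFP to DsRed ratio, PSI derived from sequencing read proportions per bin multiplied by bin number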
- run.parameters: c terminus: a fixed tail appended
property: protein stability index
Form: value (number only, do not type unit).

Some solved entries appear below for comparison.
mutation	protein stability index
E10H	1.78
Q24Y	3.2
P12M	2.45
S21N	2.69
T8P	2.4

Entry under test: "G19Q" . Its protein stability index was 2.96

Entry under test: "H3P" . Its protein stability index was 2.66

Entry under test: "H7K" . Its protein stability index was 2.27

Entry under test: "P12Y" . Its protein stability index was 2.77

Entry under test: "E10K" . Its protein stability index was 2.03

Entry under test: "H7V" . Its protein stability index was 4.2

Entry under test: "Q24R" . Its protein stability index was 1.67

Entry under test: "N16W" . Its protein stability index was 2.04

Entry under test: "G19K" . Its protein stability index was 2.79

Entry under test: "Y17E" . Its protein stability index was 2.3

Entry under test: "T8E" . Its protein stability index was 3.07

Entry under test: "R5W" . Its protein stability index was 2.15

Entry under test: "C18T" . Its protein stability index was 3.4

Entry under test: "S21C" . Its protein stability index was 2.02

Entry under test: "T1I" . Its protein stability index was 2.21

Entry under test: "Q24D" . Its protein stability index was 2.24

Entry under test: "H7S" . Its protein stability index was 2.4

Data credit: the supplement of paper PMC10567573
